Exercise: state measured protein stability index for each of the variants provided.
B1: KLHL14 (parent)
chain: YVIGGRNETGYLSSVECYNLETNE

Variants of: B1
assay protocol: protein stability index of a GFP-peptide fusion (GPS, HEK-293T) (PSI 1-6); higher = more stable;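 also: lentivirally expressed fusions sorted by FACS into six bins by GFP to DsRed ratio, PSI derived from sequencing read proportions per bin multiplied by bin number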
protocol conditions: c terminus: a fixed tail appended
Lab note: record just the number, no unit beside it.

Input line: Please look up its protein stability index: YVIGGRNETGYLSSVMCYNLETNE
Output line: 1.45

Input line: Follow-up item: YVIGGRNEMGYLSSVECYNLETNE
Output line: 2.37

Input line: Follow-up item: YVIGGRNETGYLSSVCCYNLETNE
Output line: 2.58

Input line: Follow-up item: YVIGGRNETGYLSPVECYNLETNE
Output line: 1.61

Input line: Follow-up item: YVIGGRNETGYLSSVECINLETNE
Output line: 2.5

Input line: Follow-up item: YVIGGRNETGYLSSVEHYNLETNE
Output line: 2.08

Input line: Follow-up item: YVIGGRNETQYLSSVECYNLETNE
Output line: 2.29

Input line: Follow-up item: YVIGGRNETGYLSSVECNNLETNE
Output line: 2.61

Input line: Follow-up item: RVIGGRNETGYLSSVECYNLETNE
Output line: 4.39

Input line: Follow-up item: YVNGGRNETGYLSSVECYNLETNE
Output line: 1.81

Input line: Follow-up item: YVIGGRIETGYLSSVECYNLETNE
Output line: 1.74

Input line: Follow-up item: YVILGRNETGYLSSVECYNLETNE
Output line: 1.47

Input line: Follow-up item: DVIGGRNETGYLSSVECYNLETNE
Output line: 4.64

Input line: Follow-up item: YVIGGRNETEYLSSVECYNLETNE
Output line: 3.13

Input line: Follow-up item: YVIGGRFETGYLSSVECYNLETNE
Output line: 2.29

Input line: Follow-up item: YVIGGRNETGYLSSVEQYNLETNE
Output line: 2.43

Input line: Follow-up item: YVIGGRNETGYLSSVEIYNLETNE
Output line: 2.5

Input line: Follow-up item: YVIGGRNETGYLSSVECYNLETAE
Output line: 2.06

Input line: Follow-up item: YVIGGRNETGYLSSVECYNLETNC
Output line: 1.96

Input line: Follow-up item: YVWGGRNETGYLSSVECYNLETNE
Output line: 1.02

Input line: Follow-up item: YVIGGRNETGYLSSVECYNLEPNE
Output line: 1.76

Input line: Follow-up item: YVIGGRNETGYLSSVICYNLETNE
Output line: 1.83

Input line: Follow-up item: YVIMGRNETGYLSSVECYNLETNE
Output line: 2.31

Input line: Follow-up item: YVIGGRNETGYLSSVECYNLETNG
Output line: 1.69

Input line: Follow-up item: YVIGGLNETGYLSSVECYNLETNE
Output line: 2.09

Input line: Follow-up item: YVIGGRNETGYLYSVECYNLETNE
Output line: 1.79

Input line: Follow-up item: YVIGGRNETGYLSSFECYNLETNE
Output line: 1.52

Input line: Follow-up item: YVIGGRNETGYLSSVECYNLDTNE
Output line: 1.8

Input line: Follow-up item: YVIGGNNETGYLSSVECYNLETNE
Output line: 2.2

Input line: Follow-up item: YVIHGRNETGYLSSVECYNLETNE
Output line: 2.4

Input line: Follow-up item: YVIGGRNETGYLSSEECYNLETNE
Output line: 2.69

Input line: Follow-up item: YVIGRRNETGYLSSVECYNLETNE
Output line: 1.71
